- Experimental protocol: Cell proliferation and toxicity assay
- Assay type: cell-based
- Measurement conditions: human, CEM cells; 40 μg/ml, 0 hours
- Method: Cell proliferation and toxicity assay: Approximately 3.8×10^5 CEM cells for each peptide concentration were incubated for 3 days at 37° C. in T25 flasks. Peptides tested were DP178 (SEQ ID NO:15) and DP-116 (SEQ ID NO:1552), as described in FIG. 1. Peptides were synthesized as described, above, in Section 6.1. The concentrations of each peptide used were 0, 2.5, 10, and 40 μg/ml. Cell counts were taken at incubation times of 0, 24, 48, and 72 hours. […]
Measurement type: viability at 0 h, 40 µg/mL

Q) I would be grateful if you could share the reported viability at 0 h, 40 µg/mL for Ac-LQARILAVERYLKDQQQ-NH2 [DP-116, reference compound] .
A) 98%

----------
- Experimental protocol: Cell proliferation and toxicity assay
- Type: cell-based
- Measurement conditions: human, CEM cells; 2.5 μg/ml, 0 hours
Measurement type: viability at 0 h, 2.5 µg/mL
Report as: number unit

Q) I would be grateful if you could share the reported viability at 0 h, 2.5 µg/mL for Ac-LQARILAVERYLKDQQQ-NH2 [DP-116, reference compound] .
A) 98%

----------
- Experimental protocol: Circular dichroism spectroscopy (helicity, thermal stability)
- Assay type: physicochemical
- Measurement conditions: 35 μM peptide, PBS pH 7
Measurement type: %-Helicity (%)
// units = %; emit number, no label

// below: answered substances
T1582: RSV HR1 (DP107-like) peptide of FIG. 28, shorter than T1581 (Ac-VLHLEGEVNKIKSALLSTNKAVVSLSNGVSVLTSKVLDLKNYIDK-NH2) [Peptide T1582]    49
Ac-VLHLEGEVNKIKSALLSTNKAVVSLSNGVSVLTSKVLDLKNYIDKQ-NH2 (N-terminus and C-terminus assumed) [Peptide T1581]    69
Ac-AVSKVLHLEGEVNKIKSALLSTNKAVVSLSNGVSVLTSKVLDLKNYIDKQL-NH2 (N-terminus and C-terminus assumed) [Peptide T1584]    90

Turning now to a further substance:
Q) I would be grateful if you could share the reported %-Helicity for T1590: RSV HR1 (DP107-like) peptide of FIG. 28, shorter than T1581 (Ac-VLHLEGEVNKIKSALLSTNKAVVSLSNGVSVLTSKVLDLKNYI-NH2) [Peptide T1590] .
A) 10

----------
- Experimental protocol: Cell proliferation and toxicity assay
- Type: cell-based
- Measurement conditions: human, CEM cells; 40 μg/ml, 48 hours
Measurement type: viability at 48 h, 40 µg/mL (%)
// units = %; emit number, no label

Q) I would be grateful if you could share the reported viability at 48 h, 40 µg/mL for Ac-LQARILAVERYLKDQQQ-NH2 [DP-116, reference compound] .
A) 98

----------
- Experimental protocol: Cell proliferation and toxicity assay
- Type: cell-based
- Measurement conditions: human, CEM cells; 2.5 μg/ml, 48 hours
Measurement type: viability at 48 h, 2.5 µg/mL (%)
// units = %; emit number, no label

Q) I would be grateful if you could share the reported viability at 48 h, 2.5 µg/mL for Ac-LQARILAVERYLKDQQQ-NH2 [DP-116, reference compound] .
A) 98

----------
Listing of recorded N-mer (weight-averaged molecular weight divided by monomer molecular weight) by entry.
- Experimental protocol: Analytical ultracentrifugation (sedimentation equilibrium)
- Assay type: physicochemical
- Measurement conditions: 35 μM
- Protocol: Analytical Ultracentrifugation: Sedimentation equilibrium experiments were performed on a Beckman Optima XL-A analytical ultracentrifuge at 4° C. […] Data were analyzed using Beckman XLA data analysis software (version 3.01 for Windows) and Beckman-Origin software (version 3.78 for Windows). […] Single data files were normalized to 270 nm absorbance values using Beer's Law. […] The data obtained with DP107-like/DP178-like peptide mixtures were first analyzed with a single ideal species model. […]

// below: answered substances
Ac-AVSKVLHLEGEVNKIKSALLSTNKAVVSLSNGVSVLTSKVLDLKNYIDKQL-NH2 (N-terminus and C-terminus assumed) [Peptide T1584]    2.1
Ac-SGVAVSKVLHLEGEVNKIKSALLSTNKAVVSLSNGVSVLTSKVLDLKNYIDKQL-NH2 (N-terminus and C-terminus assumed) [Peptide T1623]    2.2
T1582: RSV HR1 (DP107-like) peptide of FIG. 28, shorter than T1581 (Ac-VLHLEGEVNKIKSALLSTNKAVVSLSNGVSVLTSKVLDLKNYIDK-NH2) [Peptide T1582]    1.5

Turning now to a further substance:
Q) I would be grateful if you could share the reported N-mer (weight-averaged molecular weight divided by monomer molecular weight) for Ac-VLHLEGEVNKIKSALLSTNKAVVSLSNGVSVLTSKVLDLKNYIDKQ-NH2 (N-terminus and C-terminus assumed) [Peptide T1581] .
A) 1.8
